Give GI50 for every item shown.
- System: SF-295 CNS
- measurementNotes: NCI tumour cell line growth inhibition, 48 h

INPUT: Could you share which GI50 value was measured for "CN(C)CCCOc1ccc(OCCCN(C)C)c2c1C(=O)c1ccccc1C2=O" ?
OUTPUT: 1.71 µM

INPUT: Could you share which GI50 value was measured for C[C@@H]1C[N+]2([O-])[C@H]3C4=CCC[C@@H]4CC[C@H]3[C@@]3(C)OC(=O)CC[C@]34CC[C@H]1[C@@H]42 (stereo not given in full) ?
OUTPUT: > 60 µM

INPUT: Could you share which GI50 value was measured for "CCOc1nc(-c2ccccc2)cc2c(O)c(C(=O)N/N=C/c3ccc(O)cc3O)[nH]c(=O)c12" ?
OUTPUT: 4.88 µM

INPUT: Could you share which GI50 value was measured for "O=C1C=CC(=O)N1C1CCCCCCCCCCC1" ?
OUTPUT: 78.7 µM

INPUT: Could you share which GI50 value was measured for "O=C(/C=C/c1ccc(Cl)cc1)/C=C/c1cc2ccccc2[nH]c1=O" ?
OUTPUT: 3.48 µM

Data provenance is PubChem BioAssay (NCI).
